This collection of values is drawn from ChEMBL document CHEMBL1127992.

# tested on: Serotonin 2 (5-HT2) receptor (Homo sapiens, UniProt P41595+P28223+P28335)
# method: Displacement of [3H]ketanserin from 5-hydroxytryptamine 2 receptor
# Assay type: protein assay
Parameter: Ki. Scope: all listed entries.

| compound smiles | censor symbol | Ki (nM) |
| --- | --- | --- |
| C(#Cc1ccccc1)CNC1CCN(Cc2ccccc2)CC1.O=C(O)/C=C/C(=O)O | = | 3300 |
| C(=C\c1ccccc1)/CN(C/C=C/c1ccccc1)C1CCN(Cc2ccccc2)CC1.O=C(O)/C=C/C(=O)O | = | 550 |
| C(=C\c1ccccc1)/CN(c1ccccc1)C1CCN(Cc2ccccc2)CC1.O=C(O)/C=C/C(=O)O | > | 10000 |
| CN(C(=O)/C=C/c1ccccc1)C1CCN(Cc2ccccc2)CC1.O=C(O)/C=C/C(=O)O | = | 1500 |
| O=C(C#Cc1ccccc1)NC1CCN(Cc2ccccc2)CC1.O=C(O)/C=C/C(=O)O | = | 280 |
